# System: Mycobacterium tuberculosis
# Protocol Notes: Cornell - Phenotypic assay to identify agents that inhibit growth of Mycobacterium tuberculosis
# Format: functional
# Design: scale not given: direction of the effect not stated beside the values
# Conditions Used: 10 mM as filed; unlikely as a test dose
The whole screen tested about 53,000 compounds, of which about 900 (1.7%) showed an effect of 50% or more. This excerpt belongs to a sample that is enriched for strong results.
Measure: Percent Effect (%)

Molecule	Quantitative Readout
COC(=O)CNC(=O)C1CCN(S(C)(=O)=O)CC1	-1.242
Cc1cc(C)n2c(CNCc3ccc(OC(F)F)cc3)cnc2n1	-7.615
CN(Cc1nc(C(F)(F)F)cs1)C(=O)CCc1ccccn1	3.481
CN(C)C(=O)CN1CCCC(c2nccnc2-c2cccc(Cl)c2)C1 (centres undefined)	27.94
CN(C)c1ncc(CN2CCCC(Nc3ccc4c(c3)OCCO4)C2)s1 (centres undefined)	37
CC(C)CCc1n[nH]c(C(=O)O)c1Cl	-0.9753
CC(=O)N1CCCC(c2ccc(C(=O)NC3CCCC3)cn2)C1 (centres undefined)	-27.02
Cc1c(C(=O)N2CCC(C(=O)c3nc4ccccc4s3)CC2)cnn1C	60.09
CC(C)CC(=O)Nc1ccccc1Oc1ccsc1C(=O)O	8.037
COCCCNCc1cc(O)c2cc(C)cc(C)c2n1	3.207
CC(C)(C)C(=O)Nc1ccc(Oc2ccsc2C(=O)O)cc1	16.22
O=C(c1cncs1)N1CCc2[nH]nc(Nc3ccccc3)c2C1	58.68
COC1CCN(S(=O)(=O)NCC2COc3ccccc3C2)CC1 (centres undefined)	23.14
COc1ccc(NC2CCCN(Cc3cnc(N(C)C)s3)C2)cc1 (centres undefined)	47.8
CC(C)CCc1n[nH]c(C(=O)O)c1I	42.63
Cc1ccc(-c2cc(C(=O)NCCC3=CCCCC3)[nH]n2)o1	52.86
Cc1cc(-c2cc(F)ccc2C(=O)O)nc(C2CCCN(C)C2)n1 (centres undefined)	0.614
O=C(c1cccnc1)N1CCc2[nH]nc(Nc3ccccc3)c2C1	46.76
COc1ccc(NC2CCCN(Cc3cnc(N(C)C)s3)C2)cc1OC (centres undefined)	55.76

###

The molecules listed here are annotated with their Percent Effect.
# System: Mycobacterium tuberculosis
# Protocol Notes: Cornell - Phenotypic assay to identify agents that inhibit growth of Mycobacterium tuberculosis
# Format: functional
# Parameters: scale not given: direction of the effect not stated beside the values
# Conditions Used: 10 mM as filed; unlikely as a test dose
About 900 (1.7%) of roughly 53,000 compounds showed an effect of 50% or more. The entries come from a sample that favours strong results as a whole.
Measure: Percent Effect (%)

Molecule	Measure	Quantitative Readout
CS(=O)(=O)NCC1CCCN(C(=O)Nc2ccccc2N2CCCC2)C1 (stereo unspecified)	Percent Effect	12.25
Cc1ncncc1C(=O)N1CCCC(Cc2nccs2)C1 (stereo unspecified)	Percent Effect	-16.51
COCc1nc(C(=O)N2CCCC2c2noc(C)n2)cs1 (stereo unspecified)	Percent Effect	-28.82
Cc1cc(C)c2cc(CNCc3ccc(C)o3)c3nn(C)c(=O)n3c2c1	Percent Effect	-2.639
COc1ccc(N2CCC(N3C[C@H](NC(C)=O)[C@@H](C(C)C)C3)CC2)cc1	Percent Effect	33.6
CNC(C)Cc1ccccc1Sc1ccc(O)cc1.Cl (stereo unspecified)	Percent Effect	105.4
Cc1cc(C)c(C(=O)N(C)CCN(C)C(=O)c2[nH]c(C)cc2C)[nH]1	Percent Effect	1.614
Cc1nc(CN2CCC3(C2)CN(C(=O)c2ccc[nH]2)C3)cs1	Percent Effect	9.497
COc1cccc(CCC2CCCN(C(=O)c3ccc(OC)o3)C2)c1 (stereo unspecified)	Percent Effect	67.76
CC1CCCN(C(=O)c2cc(-c3ccco3)cs2)C1 (stereo unspecified)	Percent Effect	33.45
Cc1noc(C)c1CN1CCC2(CC1)NC(=O)CC2c1cnn(C)c1 (stereo unspecified)	Percent Effect	47.68
